# System: Candida albicans
# EXPERIMENT_DESCRIPTION: Antifungal activity expressed as inhibitory concentration against Candida albicans in calf serum
# Assay type: functional, organism-based
METRIC: IC50 (nM)
Supply the numeric figure in nM, leaving out any unit text.

stdin: Query: IC50; subject: OC(Cn1cncn1)(Cn1cncn1)c1ccc(F)cc1F [FLUCONAZOLE]
stdout: 500

* * *

# EXPERIMENT_DESCRIPTION: Plasma concentration expressed as area under curve after intravenous administration was determined in rat
# Format: ADME, organism-based
METRIC: AUC (ng·h/mL)
Please give a number only; it is taken to be in ng·h/mL.

Solved cases below.
>>> value("Cc1c(COc2ccccc2)oc2cccc(OCCCNCc3cccnc3)c12")
670
>>> value("Cc1c(COc2ccc(F)cc2)oc2cccc(OCCCNCc3cccnc3)c12")
340
>>> value("Cc1c(COc2cccc(F)c2)oc2cccc(OCCCNCc3cccnc3)c12")
370

stdin: Which measured AUC value corresponds to `Cc1c(C(=O)Nc2ccccc2)oc2cccc(OCCCNCc3cccnc3)c12` ?
stdout: 240

stdin: What does the data say about its AUC? Entry: `Cc1c(COc2ccccc2F)oc2cccc(OCCCNCc3cccnc3)c12`
stdout: 560

stdin: Endpoint output: AUC of `Cc1c(COc2cccc(F)c2F)oc2cccc(OCCCNCc3cccnc3)c12` . Value?
stdout: 500

stdin: Give the measured AUC of `CCOC(=O)c1oc2cccc(OCCCNCc3cccnc3)c2c1C` .
stdout: 330

stdin: Give its AUC value. Item: `Cc1c(COc2ccc(F)c(F)c2F)oc2cccc(OCCCNCc3cccnc3)c12`
stdout: 330

stdin: Using the record for `Cc1c(COc2ccc(Br)cc2F)oc2cccc(OCCCNCc3cccnc3)c12` , report its AUC.
stdout: 360

stdin: Entry `Cc1c(COc2ccc(C#N)cc2)oc2cccc(OCCCNCc3cccnc3)c12` : reported AUC = ?
stdout: 340

stdin: Consider the molecule shown here: `Cc1c(COc2ccc(Cl)cc2)oc2cccc(OCCCNCc3cccnc3)c12` What is its recorded AUC?
stdout: 330
